test system: Ferredoxin; assay: Biotinylated ferredoxin counter screen on linear and lactam constrained peptide microarrays; format: binding; conditions: linear library peptide; 10.0 nM biotinylated protein, detected with Streptavidin-Alexa Fluor 555
Entries and their Ferredoxin Linear, log 10 transformed median intensity
Output spec: single numeric token, no unit.

1) TYPIYGPA [library array peptide, tested lactam constrained and linear]; 2.55
2) QPQSQQSQ [library array peptide, tested lactam constrained and linear]; 2.56
3) PPYTYANN [library array peptide, tested lactam constrained and linear]; 2.55
4) PFSGQPNS [library array peptide, tested lactam constrained and linear]; 2.59
5) PPYPNQYQ [library array peptide, tested lactam constrained and linear]; 2.58
6) TTLFQTPY [library array peptide, tested lactam constrained and linear]; 2.54
7) PNYSSAP [library array peptide, tested lactam constrained and linear]; 2.55
8) PYSNVFQG [library array peptide, tested lactam constrained and linear]; 2.57
9) IGPNPKNN [library array peptide, tested lactam constrained and linear]; 2.59
10) PGKPNTQ [library array peptide, tested lactam constrained and linear]; 2.63

So, TYPGVYPS [library array peptide, tested lactam constrained and linear] ? Its Ferredoxin Linear, log 10 transformed median intensity was 2.54

In plain terms, TISYPLTP [library array peptide, tested lactam constrained and linear] has a documented Ferredoxin Linear, log 10 transformed median intensity of 2.55

For record TTFFQPSY [library array peptide, tested lactam constrained and linear] the listed Ferredoxin Linear, log 10 transformed median intensity is 2.54

# substance VPSSYNLN [library array peptide, tested lactam constrained and linear] ; its Ferredoxin Linear, log 10 transformed median intensity = 2.58

Per the records, this substance ( TTFSFSTP [library array peptide, tested lactam constrained and linear] ) has Ferredoxin Linear, log 10 transformed median intensity equal to 2.58

For record PTSSYLN [library array peptide, tested lactam constrained and linear] the listed Ferredoxin Linear, log 10 transformed median intensity is 2.55

###

tested on: Ferredoxin NADP+ Reductase (FNR); experiment: FNR counter screen on linear and lactam constrained peptide microarrays; type: binding; settings: lactam constrained library peptide; 10.0 nM protein applied to the array
In this section, each of the sequences is paired with its reported FNR Lactam, log 10 transformed median intensity.
No unit in the answer, please; the number alone is enough.

// FNR Lactam, log 10 transformed median intensity value for TTLFQTPY [library array peptide, tested lactam constrained and linear] : 2.63

In plain terms, TTFSFSTP [library array peptide, tested lactam constrained and linear] has a documented FNR Lactam, log 10 transformed median intensity of 2.62

Looking up PYSNVFQG [library array peptide, tested lactam constrained and linear] , I see its FNR Lactam, log 10 transformed median intensity listed as 2.56

###

biological target: human diaphorase (NQO1) (Homo sapiens, UniProt P15559); construct: purchased SigmaAldrich; assay: Alexa Fluor 555-diaphorase binding to linear and lactam constrained peptide microarrays; details: lactam constrained library peptide; 10.0 nM protein applied to the array
Sequence (P15559 whole entry): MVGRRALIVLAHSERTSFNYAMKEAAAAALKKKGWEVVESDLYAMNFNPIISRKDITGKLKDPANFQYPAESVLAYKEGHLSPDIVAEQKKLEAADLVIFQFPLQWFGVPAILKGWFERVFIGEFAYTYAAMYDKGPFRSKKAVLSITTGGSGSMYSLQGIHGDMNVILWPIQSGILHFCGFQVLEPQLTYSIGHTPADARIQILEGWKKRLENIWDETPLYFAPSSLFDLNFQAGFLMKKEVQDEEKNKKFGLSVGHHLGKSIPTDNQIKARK
PARAMETER_MEASURED: Diaphorase Lactam, log 10 transformed median intensity
API doc: respond with a numeric literal and nothing else, no unit.

Here is how some substances turned out for Diaphorase Lactam, log 10 transformed median intensity.
1) TYPGVYPS [library array peptide, tested lactam constrained and linear]; 4.40
2) PTSSYLN [library array peptide, tested lactam constrained and linear]; 4.32
3) PGKPNTQ [library array peptide, tested lactam constrained and linear]; 4.36
4) TFGFNGFP [library array peptide, tested lactam constrained and linear]; 4.49
5) TISYPLTP [library array peptide, tested lactam constrained and linear]; 4.55
6) TSFFPGYN [library array peptide, tested lactam constrained and linear]; 4.51
7) TTFSFSTP [library array peptide, tested lactam constrained and linear]; 4.47

Alright, here's another substance for you.
The substance identified as TTLFQTPY [library array peptide, tested lactam constrained and linear] registered its Diaphorase Lactam, log 10 transformed median intensity at 4.45

###

test system: Ferredoxin; experiment: Biotinylated ferredoxin counter screen on linear and lactam constrained peptide microarrays; type: binding; settings: linear library peptide; 10.0 nM biotinylated protein, detected with Streptavidin-Alexa Fluor 555
PARAMETER_MEASURED: Ferredoxin Linear, log 10 transformed median intensity
// no unit, no text: just the number

Consider the following illustrative entries.
1. TFGFNGFP [library array peptide, tested lactam constrained and linear]; 2.55
2. TFSSFAPV [library array peptide, tested lactam constrained and linear]; 2.55

Please turn your attention to the following entry.
Kindly note the recorded Ferredoxin Linear, log 10 transformed median intensity for TSFFPGYN [library array peptide, tested lactam constrained and linear] , which is 2.54

###

Listed here: items and their measured Streptavidin Linear, log 10 transformed median intensity.
biological target: Streptavidin (Streptomyces avidinii, UniProt P22629); assay: Streptavidin-Alexa Fluor 555 alone on linear and lactam constrained peptide microarrays; type: binding; conditions: linear library peptide
Sequence (P22629 25-183, species assumed): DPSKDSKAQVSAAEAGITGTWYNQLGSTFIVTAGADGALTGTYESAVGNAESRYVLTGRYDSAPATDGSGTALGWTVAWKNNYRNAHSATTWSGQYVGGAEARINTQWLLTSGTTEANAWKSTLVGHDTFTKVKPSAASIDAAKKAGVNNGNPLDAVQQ
Keep the answer to the number alone.

Some substances with recorded Streptavidin Linear, log 10 transformed median intensity:
1. QPQSQQSQ [library array peptide, tested lactam constrained and linear]; 2.54
2. TSFFPGYN [library array peptide, tested lactam constrained and linear]; 2.53
3. PTSSYLN [library array peptide, tested lactam constrained and linear]; 2.53

GET /value?item= TFSSFAPV [library array peptide, tested lactam constrained and linear] &field=Streptavidin Linear, log 10 transformed median intensity returns 2.53

Streptavidin Linear, log 10 transformed median intensity measured on TISYPLTP [library array peptide, tested lactam constrained and linear] = 2.53

Per the records, this substance ( IGPNPKNN [library array peptide, tested lactam constrained and linear] ) has Streptavidin Linear, log 10 transformed median intensity equal to 2.52

The recorded Streptavidin Linear, log 10 transformed median intensity for PPYPNQYQ [library array peptide, tested lactam constrained and linear] is 2.53

// Streptavidin Linear, log 10 transformed median intensity lookup, substance = TTFSFSTP [library array peptide, tested lactam constrained and linear] , result: 2.54

###

Listing: Streptavidin Lactam, log 10 transformed median intensity of selected substances
target: Streptavidin (Streptomyces avidinii, UniProt P22629); experiment: Streptavidin-Alexa Fluor 555 alone on linear and lactam constrained peptide microarrays; assay type: binding; details: lactam constrained library peptide
Reply briefly: the number, and no unit.

Example substances with recorded Streptavidin Lactam, log 10 transformed median intensity:
1) PPYTYANN [library array peptide, tested lactam constrained and linear]; 2.53
2) PYSNVFQG [library array peptide, tested lactam constrained and linear]; 2.54

Record for PGKPNTQ [library array peptide, tested lactam constrained and linear] under target or system Streptavidin (Streptomyces avidinii, UniProt P22629): Streptavidin Lactam, log 10 transformed median intensity reported as 2.51

Summary: TTFFQPSY [library array peptide, tested lactam constrained and linear] , Streptavidin (Streptomyces avidinii, UniProt P22629), Streptavidin Lactam, log 10 transformed median intensity = 2.52

###

target: Streptavidin (Streptomyces avidinii, UniProt P22629); assay: Streptavidin-Alexa Fluor 555 alone on linear and lactam constrained peptide microarrays; assay type: binding; details: linear library peptide
PARAMETER_MEASURED: Streptavidin Linear, log 10 transformed median intensity
Form: value (number only, do not type unit).

Measured Streptavidin Linear, log 10 transformed median intensity of TYPIYGPA [library array peptide, tested lactam constrained and linear] : 2.52

Short answer for TYPGVYPS [library array peptide, tested lactam constrained and linear] : Streptavidin Linear, log 10 transformed median intensity was 2.51

get_value(item= VPSSYNLN [library array peptide, tested lactam constrained and linear] , readout=Streptavidin Linear, log 10 transformed median intensity) returns 2.57

The value of Streptavidin Linear, log 10 transformed median intensity measured for the substance TTLFQTPY [library array peptide, tested lactam constrained and linear] turned out to be 2.52

TTFFQPSY [library array peptide, tested lactam constrained and linear] yielded Streptavidin Linear, log 10 transformed median intensity of 2.54

The recorded Streptavidin Linear, log 10 transformed median intensity for PNYSSAP [library array peptide, tested lactam constrained and linear] is 2.52

Quick note, Streptavidin Linear, log 10 transformed median intensity for TFGFNGFP [library array peptide, tested lactam constrained and linear] landed at 2.52

###

tested on: Ferredoxin NADP+ Reductase (FNR); experiment: FNR counter screen on linear and lactam constrained peptide microarrays; assay type: binding; details: linear library peptide; 10.0 nM protein applied to the array
PARAMETER_MEASURED: FNR Linear, log 10 transformed median intensity
Number only, please.

Example entries and their recorded answers appear below.
1) VPSSYNLN [library array peptide, tested lactam constrained and linear]; 2.57
2) TTFFQPSY [library array peptide, tested lactam constrained and linear]; 2.54
3) PFSGQPNS [library array peptide, tested lactam constrained and linear]; 2.58
4) PYSNVFQG [library array peptide, tested lactam constrained and linear]; 2.56

Then there is this substance:
The substance listed as TYPIYGPA [library array peptide, tested lactam constrained and linear] has a reported FNR Linear, log 10 transformed median intensity of 2.53

###

System: Non-Immunoglobulin Serum Components (NISC)
Experiment: NISC counter screen on linear and lactam constrained peptide microarrays
Assay type: binding, human
Details: linear library peptide; 0.001 mg/mL NISC applied to the array
Protocol: Diaphorase is NAD(P)H dehydrogenase (UniProtKB: P15559) encoded by the NQO1 gene. Diaphorase has utility as a model enzyme; for which peptide based synthetic affinity agents to diaphorase are required. A 3.3 million feature peptide array was used to identify potential binding partner peptides for diaphorase. […] Peptide arrays were prepared for protein binding by pretreating the arrays in PBST for 30 min at 57° C. […] Data were analyzed using a custom R script. […]
As shown below, each of these substances has a reported NISC Linear, log 10 transformed median intensity value.
Lab note: jot down the number only; don't add units.

Worked examples follow.
1) PGKPNTQ [library array peptide, tested lactam constrained and linear]; 2.84
2) TTFSFSTP [library array peptide, tested lactam constrained and linear]; 2.62
3) TYPGVYPS [library array peptide, tested lactam constrained and linear]; 2.58
4) TFGFNGFP [library array peptide, tested lactam constrained and linear]; 2.62
5) QPQSQQSQ [library array peptide, tested lactam constrained and linear]; 2.59

# NISC Linear, log 10 transformed median intensity (substance: PPYTYANN [library array peptide, tested lactam constrained and linear] ) is 2.63

Reported NISC Linear, log 10 transformed median intensity of TISYPLTP [library array peptide, tested lactam constrained and linear] : 2.59

Field NISC Linear, log 10 transformed median intensity (entry PNYSSAP [library array peptide, tested lactam constrained and linear] ) reads 2.61

Form field NISC Linear, log 10 transformed median intensity, entry PFSGQPNS [library array peptide, tested lactam constrained and linear] : 2.63
